Target: FXR (Homo sapiens (Human), UniProt Q96RI1)
Sequence (Q96RI1 262-486): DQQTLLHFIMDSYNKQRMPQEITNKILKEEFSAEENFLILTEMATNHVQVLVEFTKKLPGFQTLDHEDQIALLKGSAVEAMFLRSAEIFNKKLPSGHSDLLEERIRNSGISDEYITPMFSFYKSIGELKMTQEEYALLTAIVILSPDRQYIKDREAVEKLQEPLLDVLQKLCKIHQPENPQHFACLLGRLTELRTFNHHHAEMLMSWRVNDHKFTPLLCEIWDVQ
Assay: FXR EC50 (FXR agonist activity reported with each example)
Assay type: cell-based
pEC50: −log10 of the molar value.
Decide by pEC50: equal to or exceeding 7 means met, less means not met.

Solved cases (6 shown):
INSERT INTO results (compound, category_label) VALUES
  ('O=C(O)c1ccc(NC(=O)C23CCC(COCc4c(-c5c(Cl)cccc5Cl)noc4C4CC4)(CC2)CC3)c(Cl)c1', 'not met'),
  ('O=C(O)c1cc(OC(F)F)c2cc(OCC34CCC(OCc5c(-c6c(Cl)cncc6Cl)noc5C5CC5)(CC3)CO4)ccc2n1', 'not met'),
  ('COC(=O)c1ccc(NC(=S)C23CCC(COCc4c(-c5c(Cl)cccc5Cl)noc4C4CC4)(CC2)CC3)c(Cl)c1 [Intermediate 168A]', 'not met'),
  ('CC(C)Oc1cc(C#CC23CCC(OCc4c(-c5c(Cl)cncc5Cl)noc4C4CC4)(CC2)CC3)cc(C(=O)O)c1', 'met'),
  ('Cc1cc(C(=O)O)nc2ccc(OCC34CCC(OCc5c(-c6c(Cl)cncc6Cl)noc5C5CC5)(CC3)CC4)cc12', 'met'),
  ('O=C(O)c1ncc(OCC23CCC(OCc4c(-c5c(Cl)cncc5Cl)noc4C4CC4)(CC2)CC3)cc1OC1CC1', 'met');

q: Textbook exercise: given the entry CCc1cc(C(=O)O)nc2ccc(OCC34CCC(OCc5c(-c6c(Cl)cncc6Cl)noc5C5CC5)(CC3)CC4)cc12 , state whether its pEC50 is greater than or equal to 7.
a: met

Values were extracted from patent US10730863B2.
